targetDesc: Aspartate--tRNA(Asp/Asn) ligase (Mycobacterium tuberculosis (strain ATCC 25618 / H37Rv)); further: in the data most compounds retested in dose-response had high values
procedureSummary: Assay for Asp RNA synthetase-1 from Mycobacterium tuberculosis
Type: functional
Parameters: scale not given: direction of the effect not stated beside the values
cond: 30 µM
quantityKind: Percent Effect (%)
Report as a plain number; the unit % is understood.

query: Tell me Percent Effect reported for Cc1ccn2cc(C(=O)N3CCCC3c3c(C)nn(C)c3C)nc2c1 (stereo not given)
result: -1.79

query: Tell me Percent Effect reported for N#Cc1cccnc1NCCNC(=O)N1CCCC(C(F)(F)F)C1 (stereo not given)
result: -0.524

query: Tell me Percent Effect reported for COc1ccc(C(C)=O)c(OCC(=O)NC(C)c2ccc(F)cc2)c1 (stereo not given)
result: -4.39

query: Tell me Percent Effect reported for "CC(C)(C)n1cc(C(=O)N2CCN(Cc3ccsc3)CC2)cn1"
result: -3.48

query: Tell me Percent Effect reported for CCCN1C(=O)CC2(CCCNC2)C1=O (stereo not given)
result: 3.28

query: Tell me Percent Effect reported for CCN1CCN(CC(O)c2ccc(F)cc2)CC1 (stereo not given)
result: -6.48

query: Tell me Percent Effect reported for "COCCOCC(=O)Nc1ccc(Br)cc1F"
result: -5.06

query: Tell me Percent Effect reported for "Cc1cccc2c1cnn2CCCNC(=O)CCCC(=O)O"
result: 15.5

query: Tell me Percent Effect reported for Cc1noc(C)c1CNCC1CCN(CC(O)c2ccccc2)CC1 (stereo not given)
result: -1.06

query: Tell me Percent Effect reported for Cc1cc(C)c2c(c1)C1(CC(=O)Nc3c1cnn3C(C)C)C(=O)N2 (stereo not given)
result: 1.68

query: Tell me Percent Effect reported for COCC1CN(Cc2ccc(C)o2)Cc2ncn(CC3CC3)c21 (stereo not given)
result: -3.92

query: Tell me Percent Effect reported for Cn1ncc2c1C(COCC1CC1)CN(Cc1ccoc1)C2 (stereo not given)
result: -4.51

query: Tell me Percent Effect reported for Cn1cnnc1C1CCCN(C(=O)NCCc2ccccc2F)C1 (stereo not given)
result: -6.03

query: Tell me Percent Effect reported for "Cc1[nH]ccc1C(=O)N1CCC(c2nnc(Cn3ccnc3)n2C)CC1"
result: -1.28

query: Tell me Percent Effect reported for Cc1cnn(CC2CN(Cc3nccn3C)CCO2)c1 (stereo not given)
result: -3.32

query: Tell me Percent Effect reported for CC(CNC(=O)c1cccnc1Oc1cccnc1)N(C)C (stereo not given)
result: -3.18

query: Tell me Percent Effect reported for c1csc(CN2CCOCC3(CCN(C4CCOCC4)C3)C2)n1 (stereo not given)
result: 9.2

query: Tell me Percent Effect reported for Cc1ccc(Cl)cc1N1CCC(CNC(=O)CCn2ccnc2)C1 (stereo not given)
result: -2.41

query: Tell me Percent Effect reported for "Cc1cnc(NC(=O)c2ccc(-n3ncc(C#N)c3N)cc2)s1"
result: 0

query: Tell me Percent Effect reported for COc1cccc(COCC(O)CN2CC(n3cccn3)C2)c1 (stereo not given)
result: -2.41

query: Tell me Percent Effect reported for "Cc1cc(C)cc(N(C)S(=O)(=O)c2cc(C(=O)O)cs2)c1"
result: 2.79

query: Tell me Percent Effect reported for "CCc1ncc2c(n1)CN(Cc1nc(-c3ccsc3)no1)CC2"
result: -0.759

query: Tell me Percent Effect reported for "Cc1cc(NS(=O)(=O)c2ccccc2F)ccc1-n1cccc1C(=O)O"
result: 6.98

query: Tell me Percent Effect reported for CN(CCCc1cnn(C)c1)C(=O)C1CCOC1 (stereo not given)
result: 5.2

query: Tell me Percent Effect reported for "CSCc1cccc(S(=O)(=O)NCCCN2CCOCC2)c1"
result: 13.9

###

targetDesc: Aspartate--tRNA(Asp/Asn) ligase (Mycobacterium tuberculosis (strain ATCC 25618 / H37Rv)); further: in the data most compounds retested in dose-response had high values
procedureSummary: Assay for Asp RNA synthetase-1 from Mycobacterium tuberculosis
Type: functional
Parameters: scale not given: direction of the effect not stated beside the values
cond: 30 µM
quantityKind: Percent Effect (%)
Report as a plain number; the unit % is understood.

query: Tell me Percent Effect reported for "CN(Cc1ccco1)[C@@H]1CN(C(=O)c2ccnnc2)C[C@@H]2CCCO[C@@H]21"
result: -5.22

query: Tell me Percent Effect reported for Cc1ccc(S(=O)(=O)N2CCC3(CC(C(=O)NCC4CC4)=NO3)C2)cc1 (stereo unspecified)
result: 10.8

query: Tell me Percent Effect reported for "Cc1nc(CNCc2c(C)nn(C)c2N2CCOCC2)cs1"
result: -5.61

query: Tell me Percent Effect reported for Cc1nc(C)n(C2CCCN(C(=O)c3ccc(N(C)C)nn3)C2)n1 (stereo unspecified)
result: 0.605

query: Tell me Percent Effect reported for O=C1N(Cc2ccccc2F)CCCC12CCN(C1CCSCC1)C2 (stereo unspecified)
result: -2.75

query: Tell me Percent Effect reported for "O=C(CN1CCNCC1)N1CC[C@@H](c2ccc3ccccc3c2)[C@H](O)C1"
result: -0.747

query: Tell me Percent Effect reported for CC(=O)N1CCCC(c2cnc(-c3c(C)nn(C)c3C)cn2)C1 (stereo unspecified)
result: -3.49

query: Tell me Percent Effect reported for O=C(c1ccc(F)c(F)c1)N1CCCC1CN1CCCC1 (stereo unspecified)
result: -3.65

query: Tell me Percent Effect reported for "CN(C)C(=O)N1C[C@H]2CN(Cc3cccc(F)c3)C(=O)[C@H]2C1"
result: -2.95

query: Tell me Percent Effect reported for CC(C)n1[nH]c(=O)c2c1NC(=O)CC2c1cccnc1 (stereo unspecified)
result: -1.05

query: Tell me Percent Effect reported for CCc1nnc2n1CC(CNCc1ccncc1)CC2 (stereo unspecified)
result: -3.51

###

targetDesc: Aspartate--tRNA(Asp/Asn) ligase (Mycobacterium tuberculosis (strain ATCC 25618 / H37Rv)); further: in the data most compounds retested in dose-response had high values
procedureSummary: Assay for Asp RNA synthetase-1 from Mycobacterium tuberculosis
Format: functional
Parameters: scale not given: direction of the effect not stated beside the values
cond: 30 µM
Exercise: for every item that follows, state its recorded Percent Effect.
Report as a plain number; the unit % is understood.

query: Tell me Percent Effect reported for COc1ccc(Cl)cc1C(=O)N1CCOC2(CNCCOC2)C1 (stereo unspecified)
result: -0.926

query: Tell me Percent Effect reported for "CCc1ccc(CN2CCN(C)c3ncccc3C2)o1"
result: -0.259

query: Tell me Percent Effect reported for CN(C)c1cc2c(nn1)CCN(C(=O)C1CCc3ccccc31)C2 (stereo unspecified)
result: 5.85

query: Tell me Percent Effect reported for CCN1CCC(NC(=O)CN2CCCC2Cn2nc(C)cc2C)CC1 (stereo unspecified)
result: -0.781

query: Tell me Percent Effect reported for Cc1cc(CNC(=O)NC(C)c2ccncc2)no1 (stereo unspecified)
result: 7.94

query: Tell me Percent Effect reported for O=C(NCC1CC1)C1=NOC2(CCN(Cc3ccc4c(c3)OCO4)C2)C1 (stereo unspecified)
result: 2.18

query: Tell me Percent Effect reported for "COCCN(C)C[C@@H]1CCC[C@@H]2CN(c3cc(OC)ncn3)C[C@@H]21"
result: 1.66

query: Tell me Percent Effect reported for "Cc1ccc(C(=O)N2C[C@@H]3OCCN(CCN4CCCC4)[C@@H]3C2)cn1"
result: -1.02

query: Tell me Percent Effect reported for CN1CC(=O)N(c2ccsc2)CC12CCN(C(=O)c1ccccc1)C2 (stereo unspecified)
result: 2.85

query: Tell me Percent Effect reported for Cc1cccc(CNC2CCCc3c2cnn3C)c1 (stereo unspecified)
result: 0.855

query: Tell me Percent Effect reported for "Cc1ccc(NC(=O)c2cc(S(=O)(=O)N3CCCCC3)c[nH]2)cc1F"
result: 1.97

###

targetDesc: Shiga toxin 2 (Escherichia coli O157:H7) (UniProt P09385+P09386)
procedureSummary: E. coli 0.157:H7 Shiga Toxin SOP - stx2 screening assay
Type: functional
Set-up: scale not given: direction of the effect not stated beside the values
cond: 30 µM
Exercise: for every item that follows, state its recorded Percent Effect.
Report as a plain number; the unit % is understood.

query: Tell me Percent Effect reported for "COc1ccc(C(=O)N2CCC(Nc3cccnn3)CC2)c(OC)c1"
result: 8.84

query: Tell me Percent Effect reported for "CS(=O)(=O)N1CC[C@]2(C[C@@H](OCC3CCC3)CO2)C1"
result: 6.17

query: Tell me Percent Effect reported for Cc1cnc(N2CCCC3(CCCN(C)C3)C2)nc1 (configuration not stated)
result: 7.25

query: Tell me Percent Effect reported for "COc1ccc(Br)c(C(=O)NCC2CCN(C(=O)c3ccoc3)CC2)c1"
result: 0.84

query: Tell me Percent Effect reported for CC(C)c1ncc(S(C)(=O)=O)c(C2CCCNC2)n1 (configuration not stated)
result: 10.4

query: Tell me Percent Effect reported for Cn1cc2c(n1)C(CNC(=O)Cc1ccsc1)OCC2 (configuration not stated)
result: -23.6

query: Tell me Percent Effect reported for CC(NC(=O)NCCCOC1CCCCC1)c1nncn1C (configuration not stated)
result: -6.91

query: Tell me Percent Effect reported for Cc1nnc(N2CCCC3(CN(Cc4ccc(C)s4)CCO3)C2)o1 (configuration not stated)
result: -45.3

query: Tell me Percent Effect reported for "O=C(Cc1cccs1)N1C[C@@H]2OCCN(CC3CCCC3)[C@@H]2C1"
result: 13.2

query: Tell me Percent Effect reported for Cc1nc(-c2ccc(C(=O)O)cc2)cc(C2CCN(C(C)C)C2)n1 (configuration not stated)
result: -5.82

query: Tell me Percent Effect reported for COc1ncccc1C(=O)N1CCn2c(COCC3CC3)cnc2C1C (configuration not stated)
result: 6.35

query: Tell me Percent Effect reported for "CCc1nnc2n1CCN(C(=O)c1cc3ccc(F)cc3nc1C)C2"
result: 8.5

query: Tell me Percent Effect reported for "O=C(NCc1ccccn1)[C@]12COC[C@H]1CN(C1CCC1)C2"
result: -15.4

query: Tell me Percent Effect reported for "CC(=O)Nc1cccc(C(=O)Nc2cnc3n2CCCC3)c1"
result: -9.23

query: Tell me Percent Effect reported for c1cnc(N2CCCC(NCc3cccc4c3OCCO4)C2)nc1 (configuration not stated)
result: 4.24

query: Tell me Percent Effect reported for Cc1cnn(CC2CCCCN2CCCS(N)(=O)=O)c1 (configuration not stated)
result: -56.9

query: Tell me Percent Effect reported for "CN(Cc1ccc(Cl)s1)C(=O)NCc1nnc2n1CCC2"
result: 27.4

query: Tell me Percent Effect reported for "Cc1ncccc1O[C@H]1CCN(C(=O)Cc2cccs2)CC[C@@H]1O"
result: -7.15

query: Tell me Percent Effect reported for "Cc1cc(CN2CCN(C(=O)c3sccc3C3CC3)CC2)on1"
result: 27

query: Tell me Percent Effect reported for "CN(CCN1CCOCC1)C(=O)CCCc1ccccc1"
result: 0.944

query: Tell me Percent Effect reported for CC(=O)N(Cc1ncc(C)o1)C1CCN(CCCc2cnn(C)c2)C1 (configuration not stated)
result: -33.8

query: Tell me Percent Effect reported for CS(=O)(=O)N1CCCC12CCCN(S(=O)(=O)c1cc(F)cc(F)c1)C2 (configuration not stated)
result: 2.89

query: Tell me Percent Effect reported for "Cc1nc2c(c(C)c1CC(=O)NCc1cccc(C#N)c1)c(=O)[nH]n2C"
result: 25.4

query: Tell me Percent Effect reported for Cc1nc(C(=O)N2CCC(Cc3cnc4[nH]ccc4c3)C2)co1 (configuration not stated)
result: 62.2

query: Tell me Percent Effect reported for COc1cccc(COCC(O)CN2CC(n3cccn3)C2)c1 (configuration not stated)
result: 16.5

query: Tell me Percent Effect reported for CS(=O)(=O)c1ccc(CNC(=O)N2CCC(C(N)=O)C2)cc1 (configuration not stated)
result: -11.7

query: Tell me Percent Effect reported for "CNc1nc(CNC(=O)Nc2cccc(F)c2C)cs1"
result: 17.1

query: Tell me Percent Effect reported for "Cc1ccc(C(=O)NS(=O)(=O)c2cccc3cnccc23)c(=O)[nH]1"
result: 1.19

query: Tell me Percent Effect reported for "CC(=O)N1CCN(C(=O)c2cnn(-c3ccccc3Cl)c2)CC1"
result: 14.3

query: Tell me Percent Effect reported for CNC(=O)CN1CCOCC2(CCCN(Cc3cccnc3)C2)C1 (configuration not stated)
result: -22.5

query: Tell me Percent Effect reported for Fc1cccc(-n2ccc(CN3CCCCC3Cn3cncn3)n2)c1 (configuration not stated)
result: 17.2

query: Tell me Percent Effect reported for O=C(c1cnc(-c2ccco2)s1)N1CCCC1Cn1cccn1 (configuration not stated)
result: -4.37

query: Tell me Percent Effect reported for c1ncn(CC2CCCN(Cc3nc(C4CC4)no3)C2)n1 (configuration not stated)
result: -1.62

query: Tell me Percent Effect reported for Cc1nc(CN(Cc2cccs2)C2CCS(=O)(=O)C2)oc1C (configuration not stated)
result: 34.6

query: Tell me Percent Effect reported for "CNS(=O)(=O)Cc1ccc(CNC(=O)Nc2cccnc2)cc1"
result: -38.8

query: Tell me Percent Effect reported for COc1ccccc1CC1CCCN(CC(=O)N2CCOCC2)C1 (configuration not stated)
result: 16.7

query: Tell me Percent Effect reported for "COC[C@]12COC[C@H]1CN(Cc1cc(OC)cc(OC)c1)C2"
result: -6.3

query: Tell me Percent Effect reported for "CO[C@H]1CN(Cc2cccc(C#N)c2)[C@@H]2COC[C@H]12"
result: -22.2

query: Tell me Percent Effect reported for "O=C1CN(Cc2ccc(-c3ccccc3C(=O)O)cc2)CCN1"
result: 43.1

query: Tell me Percent Effect reported for O=C(c1cccc2c1OCO2)N1CCCC1c1noc(C2CC2)n1 (configuration not stated)
result: -15.1

query: Tell me Percent Effect reported for "CC(C)NC(=O)c1sccc1N(C)S(=O)(=O)c1ccc(Cl)cc1"
result: -18.9

query: Tell me Percent Effect reported for "CCc1nnc2n1CCN(C(=O)Cc1csc(-c3ccco3)n1)C2"
result: -3.06

query: Tell me Percent Effect reported for "COCCN(C)C[C@@H]1CN(C(=O)c2ccoc2)C[C@@H]1CO"
result: 15.1

query: Tell me Percent Effect reported for Cc1cnc(CN(C)C2CCN(CCc3cnn(C)c3)C2)o1 (configuration not stated)
result: 9.7

query: Tell me Percent Effect reported for CN(C)C(=O)CC1CC2(CCNCC2)c2cc(F)ccc21 (configuration not stated)
result: 1.21

query: Tell me Percent Effect reported for "CN(C)C[C@H]1OC[C@@H]2CCN(S(=O)(=O)c3cccs3)C[C@@H]21"
result: -8.75

query: Tell me Percent Effect reported for "CCCn1nc2c(cc1=O)CN(Cc1nc(CCOC)no1)CC2"
result: -17.7
